- PROCEDURE_TEXT: Solubility in PBS buffer at pH 7.4
- Type: physicochemical
solubility for assorted compounds
REPORTED_METRIC: solubility (µg/mL)

COCCCOc1ccnc(C2NC(=S)NC3=C2C(=O)c2ccccc23)c1 (stereo unspecified) :: 62
COCCCOc1cccc([C@H]2NC(=S)NC3=C2C(=O)c2ccccc23)c1 :: 4
O=C1C2=C(NC(=S)NC2c2cccc(OCc3cccnc3)c2)c2ccccc21 (stereo unspecified) :: 1
COCCCOc1cccc([C@H]2NC(=S)Nc3c2oc2ccccc32)c1 :: 1
COCCCOc1cccc([C@H]2NC(=S)Nc3c2oc2ncccc32)c1 :: 21
S=C1Nc2c(oc3ncccc23)C(c2cccc(OCc3cccnc3)c2)N1 (stereo unspecified) :: 15
